- Experimental System: human SGLT1 (Homo sapiens, UniProt P13866)
- Construct: expressed in transfected cells
- Sequence (P13866 1-664): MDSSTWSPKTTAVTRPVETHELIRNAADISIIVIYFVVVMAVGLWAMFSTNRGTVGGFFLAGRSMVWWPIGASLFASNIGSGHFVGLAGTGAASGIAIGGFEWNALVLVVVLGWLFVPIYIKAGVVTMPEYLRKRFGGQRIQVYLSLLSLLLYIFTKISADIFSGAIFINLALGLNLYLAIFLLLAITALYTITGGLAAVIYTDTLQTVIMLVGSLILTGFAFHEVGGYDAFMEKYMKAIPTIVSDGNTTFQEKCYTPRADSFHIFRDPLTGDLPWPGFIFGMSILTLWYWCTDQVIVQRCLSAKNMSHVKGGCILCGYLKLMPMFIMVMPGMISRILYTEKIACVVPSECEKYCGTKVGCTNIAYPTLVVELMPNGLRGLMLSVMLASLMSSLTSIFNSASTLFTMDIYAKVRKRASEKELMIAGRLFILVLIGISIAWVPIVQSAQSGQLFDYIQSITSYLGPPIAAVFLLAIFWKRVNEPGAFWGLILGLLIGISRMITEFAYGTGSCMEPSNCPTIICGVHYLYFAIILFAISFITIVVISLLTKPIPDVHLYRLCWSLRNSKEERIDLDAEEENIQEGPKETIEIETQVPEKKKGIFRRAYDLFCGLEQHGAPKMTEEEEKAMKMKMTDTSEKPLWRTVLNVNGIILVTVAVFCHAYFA
- Measurement Protocol: SGLT1 in vitro assay: Na-dependent 14C-AMG uptake in CHO-K1 cells stably expressing human SGLT1
- Type: cell-based
- Setup Conditions: @ 0.3 μM; CHO-K1 cells stably expressing human SGLT1; 14C-AMG uptake
Reported Metric: SGLT1 % Inh @ 0.3 μM (%)

Query Smiles	Reported Metric	Unit Annotation	Observed
CCc1cc(OC)c([C@@H]2O[C@H](CO)C(F)(F)[C@H](O)[C@H]2O)cc1Cc1ccc(OC(F)(F)F)cc1	SGLT1 % Inh @ 0.3 μM	%	27.4
COc1ccc(Cc2cc([C@@H]3O[C@H](CO)C(F)(F)[C@H](O)[C@H]3O)c(OC)cc2Cl)cc1	SGLT1 % Inh @ 0.3 μM	%	8.4
COc1cc(Cl)c(Cc2ccc(Cl)s2)cc1[C@@H]1O[C@H](CO)C(F)(F)[C@H](O)[C@H]1O	SGLT1 % Inh @ 0.3 μM	%	40.4
